Below are pIC50 values recorded for Progesterone receptor (Homo sapiens).
pIC50: −log10 of the molar value.
value kind: pIC50

molecule	value kind	data value
C=C1CCC[C@@H](C)[C@@H]1Cc1cc(OC)c(Br)cc1O	pIC50	6.49

a: C=C1C=CCC(C)(C)C1Cc1cc(OC)c(Br)cc1O (stereo not given)
b: C=C1[C@H](O)CCC(C)(C)[C@@H]1Cc1cc(OC)c(Br)cc1O
Of a and b , whose reported pIC50 is the larger number? Record your answer as the label of the chosen record.
a
(a: 6.11, b: 5.47)

1: C=C1CCC[C@H](C)[C@H]1Cc1cc(OC)c(Br)cc1O
2: C=C1C=C(C)CC(C)(C)C1Cc1ccc([N+](=O)[O-])c(C)c1 (stereo not given)
3: C=C1C=C(C)C[C@@H](C)[C@@H]1Cc1cc(OC)c(Br)cc1OC(C)=O
4: C=C1CCCC(C)(C)[C@@H]1Cc1cc(OC)c(Br)cc1O
Arrange the 4 molecules by rising pIC50, starting with the smallest. Response format: the labels, sorted as the prompt asks.
2, 1, 4, 3
(2: 5.74, 1: 5.98, 4: 6.22, 3: 6.46)

P: C=C1CCCC(C)(C)[C@H]1Cc1cc(OC)c(Br)cc1O
Q: C=C1CCC(C)(C)C1Cc1cc(OC)c(Br)cc1O (stereo not given)
R: C=C1[C@@H](Cc2cc(OC)c(Br)cc2O)C(C)(C)CC[C@@]1(C)O
List by increasing pIC50. Answer by naming the labels in the order asked.
R, Q, P

P: C=C1C(C)=CCC(C)(C)[C@@H]1Cc1cc(OC)c(Br)cc1OC(C)=O
Q: COc1cc(CC2C(C)(C)CC(C)=CC23CC3)c(OC(C)=O)cc1Br (stereo not given)
R: C=C1C[C@H](CO)CC(C)(C)[C@@H]1Cc1cc(OC)c(Br)cc1O
Hello, I need these entries ordered by pIC50, highest reading first. Thanks! Response field: labels, in requested order.
Q, P, R
(Q: 6.80, P: 6.18, R: 5.48)
